B1: High mobility group protein B1, P63159 (parent)
chain: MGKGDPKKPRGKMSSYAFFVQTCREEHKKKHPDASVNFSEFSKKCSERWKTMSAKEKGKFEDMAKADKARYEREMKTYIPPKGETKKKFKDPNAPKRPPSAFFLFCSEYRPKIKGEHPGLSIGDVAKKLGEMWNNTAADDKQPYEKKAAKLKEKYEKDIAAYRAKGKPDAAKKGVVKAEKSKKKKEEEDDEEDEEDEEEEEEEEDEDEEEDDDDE

Variants of: B1
Details: Rattus norvegicus; pH 7; 20 °C; Thermal; CD; HEPES 10 mM; structure 1HME; whole UniProt chain shown
measured-parameter: ddG of mutation (higher = less stable)

mutations=I122H measured_parameter="ddG of mutation (higher = less stable)" measured="1.23 kcal/mol"
mutations=S121H measured_parameter="ddG of mutation (higher = less stable)" measured="1.85 kcal/mol"
mutations=G123H measured_parameter="ddG of mutation (higher = less stable)" measured="0.34 kcal/mol"
mutations=D139H measured_parameter="ddG of mutation (higher = less stable)" measured="-0.27 kcal/mol"
